Tested on: Colletotricum lagenarium
Measurement Notes: Cucumber Anthracnose (COLLLA) whole-plant disease control test
Type: in vivo
Conditions Used: Cucumis sativus, foliar; 200 ppm applied to foliage of cucumber; inoculated one day after treatment; read-out: COLLLA disease control
Exercise: for every item that follows, state its recorded pest or weed control at 200 ppm.

Consider the worked cases shown below.
N#Cc1nc(Oc2ccc(CCNc3ncnc4scc(Cl)c34)cc2)ccc1Cl 80 to 100%
COc1cc(Oc2ccc(CCNc3ncnc4scc(Cl)c34)cc2)c(Br)cn1 0 to 49%
Clc1csc2ncnc(NCCc3ccc(Oc4ccccn4)cc3)c12 0 to 49%
N#Cc1cc[n+]([O-])c(Oc2ccc(CCNc3ncnc4scc(Cl)c34)cc2)c1 50 to 79%
Clc1csc2ncnc(NCCc3ccc(Oc4cc(I)ccn4)cc3)c12 50 to 79%
Fc1nc(F)c(F)c(Oc2ccc(CCNc3ncnc4scc(Cl)c34)cc2)c1F 50 to 79%
COc1cc(CCNc2ncnc3scc(Cl)c23)ccc1Oc1cc(C(F)(F)F)ccn1 50 to 79%
N#Cc1nc(Cl)ccc1Oc1ccc(CCNc2ncnc3scc(Cl)c23)cc1 0 to 49%
FC(F)(F)c1ccc(Oc2ccc(CCNc3ncnc4scc(Cl)c34)cc2)cn1 80 to 100%
FC(F)(F)c1ccnc(Oc2cccc(CCNc3ncnc4scc(Cl)c34)c2)c1 0 to 49%

Batch request: pest or weed control at 200 ppm per item, same order as input.
1. CCOC(=O)c1ccc(Oc2ccc(CCNc3ncnc4scc(Cl)c34)cc2)nc1
2. N#Cc1ncc(Oc2ccc(CCNc3ncnc4scc(Cl)c34)cc2)cc1F

["0 to 49%", "80 to 100%"]

###

Exercise: for every item that follows, state its recorded pest or weed control at 8.3 ppm.
System: Magnaporthe grisea=Pyricularia oryzae
Measurement Notes: whole plant or invertebrate
Type: in vivo
Conditions Used: Pyricularia oryzae, foliar, read-out: PYRIOR disease control, 8.3 ppm (footnote c), rice foliage

Compound	pest or weed control at 8.3 ppm
Nc1c(F)c(F)nc(Oc2ccc(CCNc3ncnc4scc(Cl)c34)cc2)c1F	80 to 100%

Batch request: pest or weed control at 8.3 ppm per item, same order as input.
1. Clc1nsc(Oc2ccc(CCNc3ncnc4scc(Cl)c34)cc2)n1
2. COc1cccc(Oc2ccc(CCNc3ncnc4scc(Cl)c34)cc2)n1
3. CSc1cc(C(F)(F)F)cc(Oc2ccc(CCNc3ncnc4scc(Cl)c34)cc2)n1
4. FC(F)(F)COc1cccc(Oc2ccc(CCNc3ncnc4scc(Cl)c34)cc2)n1
5. O=C(O)c1ccc(C(F)(F)F)nc1Oc1ccc(CCNc2ncnc3scc(Cl)c23)cc1
6. N#Cc1nccnc1Oc1ccc(CCNc2ncnc3scc(Cl)c23)cc1
7. CC(C)Cc1nnc(Oc2ccc(CCNc3ncnc4scc(Cl)c34)cc2)s1

["50 to 79%", "80 to 100%", "80 to 100%", "80 to 100%", "0 to 49%", "80 to 100%", "80 to 100%"]

###

System: Leptosphaeria nodorum
Measurement Notes: Glume Blotch of Wheat (LEPTNO) whole-plant disease control test
Type: in vivo
Conditions Used: Parastagonospora nodorum, foliar; 75 ppm (footnote b), wheat foliage
Exercise: for every item that follows, state its recorded pest or weed control at 75 ppm.

Consider the worked cases shown below.
Molecule	Target Desc	pest or weed control at 75 ppm
CC(C)(C)c1nnc(Oc2ccc(CCNc3ncnc4scc(Cl)c34)cc2)s1 [Compound 109]	Leptosphaeria nodorum	50 to 79%
CC(C)(C)c1noc(-c2cccc(Oc3ccc(CCNc4ncnc5scc(Cl)c45)cc3)n2)n1 [Compound 96]	Leptosphaeria nodorum	50 to 79%
COc1cc(CCNc2ncnc3scc(Cl)c23)ccc1Oc1cc(C(F)(F)F)ccn1 [Compound 124]	Leptosphaeria nodorum	0 to 49%

Alright, here's another molecule for you.
Record O=C(O)c1ccc(C(F)(F)F)nc1Oc1ccc(CCNc2ncnc3scc(Cl)c23)cc1 [Compound 98] : what is its pest or weed control at 75 ppm with Leptosphaeria nodorum?
0 to 49%

###

Tested on: Leptosphaeria nodorum
Measurement Notes: Glume Blotch of Wheat (LEPTNO) whole-plant disease control test
Format: in vivo
Conditions Used: Parastagonospora nodorum, foliar; 75 ppm (footnote b), wheat foliage
Readout: pest or weed control at 75 ppm

Consider the worked cases shown below.
Compound	Endpoint Value
NC(=O)c1cccc(Oc2ccc(CCNc3ncnc4scc(Cl)c34)cc2)n1 [Compound 82]	50 to 79%
CC(C)Cc1nnc(Oc2ccc(CCNc3ncnc4scc(Cl)c34)cc2)s1 [Compound 117]	0 to 49%
COc1cnc(C(F)(F)F)c(F)c1Oc1ccc(CCNc2ncnc3scc(Cl)c23)cc1 [Compound 113]	0 to 49%

Alright, here's another compound for you.
Reported pest or weed control at 75 ppm for CSc1cc(C(F)(F)F)cc(Oc2ccc(CCNc3ncnc4scc(Cl)c34)cc2)n1 [Compound 93] : what is it?
0 to 49%

###

Exercise: for every item that follows, state its recorded pest or weed control at 200 ppm.
Tested on: Puccinia recondita tritici
Measurement Notes: Leaf Rust of Wheat (PUCCRT) whole-plant disease control test
Type: in vivo
Conditions Used: Puccinia recondita, foliar, 200 ppm applied to foliage of wheat; inoculated one day after treatment; read-out: PUCCRT disease control

Batch request: pest or weed control at 200 ppm per item, same order as input.
1. COc1cc(C(F)(F)F)cc(Oc2ccc(CCNc3ncnc4scc(Cl)c34)cc2)n1 [Compound 63]
2. COc1nsc(Oc2ccc(CCNc3ncnc4scc(Cl)c34)cc2)n1 [Compound 122]
3. N#Cc1nc(F)c(F)c(Oc2ccc(CCNc3ncnc4scc(Cl)c34)cc2)c1F [Compound 103]
4. N#Cc1c(Cl)cncc1Oc1ccc(CCNc2ncnc3scc(Cl)c23)cc1 [Compound 71]

1: 80 to 100%; 2: 80 to 100%; 3: 50 to 79%; 4: 80 to 100%

###

Tested on: Leptosphaeria nodorum
Measurement Notes: Glume Blotch of Wheat (LEPTNO) whole-plant disease control test
Format: in vivo
Conditions Used: Parastagonospora nodorum, foliar; 75 ppm (footnote b), wheat foliage
Exercise: for every item that follows, state its recorded pest or weed control at 75 ppm.

Batch request: pest or weed control at 75 ppm per item, same order as input.
1. COc1ccc([N+](=O)[O-])c(Oc2ccc(CCNc3ncnc4scc(Cl)c34)cc2)n1 [Compound 116]
2. N#Cc1nccnc1Oc1ccc(CCNc2ncnc3scc(Cl)c23)cc1 [Compound 125]
3. COc1cccc(Oc2ccc(CCNc3ncnc4scc(Cl)c34)cc2)n1 [Compound 84]
4. FC(F)(F)c1cnccc1Oc1ccc(CCNc2ncnc3scc(Cl)c23)cc1 [Compound 126]
5. Fc1cc(F)c(Oc2ccc(CCNc3ncnc4scc(Cl)c34)cc2)nc1F [Compound 129]
6. CC(C)(C)C(=O)NNc1cccc(Oc2ccc(CCNc3ncnc4scc(Cl)c34)cc2)n1 [Compound 102]
7. CC(=O)c1cccc(Oc2ccc(CCNc3ncnc4scc(Cl)c34)cc2)n1 [Compound 100]

1: 0 to 49%; 2: 0 to 49%; 3: 50 to 79%; 4: 50 to 79%; 5: 50 to 79%; 6: 0 to 49%; 7: 0 to 49%

Reported pest or weed control at 75 ppm for FC(F)(F)COc1ccnc(Oc2ccc(CCNc3ncnc4scc(Cl)c34)cc2)c1 [Compound 127] : what is it?
80 to 100%

###

System: Colletotricum lagenarium
Measurement Notes: Cucumber Anthracnose (COLLLA) whole-plant disease control test
Format: in vivo
Conditions Used: Cucumis sativus, foliar; 200 ppm applied to foliage of cucumber; inoculated one day after treatment; read-out: COLLLA disease control
Readout: pest or weed control at 200 ppm

Consider the worked cases shown below.
Clc1csc2ncnc(NCCc3ccc(Oc4ncnc5sccc45)cc3)c12 80 to 100%
Cc1cc(Br)cnc1Oc1ccc(CCNc2ncnc3scc(Cl)c23)cc1 0 to 49%
Cc1cccc(Oc2ccc(CCNc3ncnc4scc(Cl)c34)cc2)n1 50 to 79%
FC(F)(F)c1ccnc(Oc2ccc(CCNc3ncnc4scc(Cl)c34)cc2)n1 50 to 79%

Reported pest or weed control at 200 ppm for `COc1nsc(Oc2ccc(CCNc3ncnc4scc(Cl)c34)cc2)n1` : what is it?
50 to 79%

###

Test system: Colletotricum lagenarium
Measurement Notes: Cucumber Anthracnose (COLLLA) whole-plant disease control test
Format: in vivo
Conditions Used: Cucumis sativus, foliar; 200 ppm applied to foliage of cucumber; inoculated one day after treatment; read-out: COLLLA disease control
Exercise: for every item that follows, state its recorded pest or weed control at 200 ppm.

Consider the worked cases shown below.
FC(F)(F)c1cnc(Oc2ccc(CCNc3ncnc4scc(Cl)c34)cc2)c(Cl)c1 50 to 79%
O=Cc1ccc(Oc2ccc(CCNc3ncnc4scc(Cl)c34)cc2)nc1 50 to 79%
Clc1nsc(Oc2ccc(CCNc3ncnc4scc(Cl)c34)cc2)n1 0 to 49%
Clc1csc2ncnc(NCCc3ccc(Oc4cccc(-n5cccn5)n4)cc3)c12 0 to 49%

Alright, here's another compound for you.
Reported pest or weed control at 200 ppm for `CC(C)OC(=O)c1cnc(Oc2ccc(CCNc3ncnc4scc(Cl)c34)cc2)c(Cl)c1` : what is it?
0 to 49%
